B1: ZNF449 (parent)
chain: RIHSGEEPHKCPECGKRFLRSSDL

variants of: B1; assay: protein stability index of a GFP-peptide fusion (GPS, HEK-293T) (PSI 1-6); higher = more stable; details: c terminus: a fixed tail appended;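 note: lentivirally expressed fusions sorted by FACS into six bins by GFP to DsRed ratio, PSI derived from sequencing read proportions per bin multiplied by bin number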
readout: protein stability index

variant_notation: P12T
numeric_result: 3.76

variant_notation: G15V
numeric_result: 3.25

variant_notation: H9Q
numeric_result: 3.19

variant_notation: E13M
numeric_result: 2.92

variant_notation: H9F
numeric_result: 3.95

variant_notation: C14Q
numeric_result: 4.96

variant_notation: H3C
numeric_result: 3.76

variant_notation: E7M
numeric_result: 3.22

variant_notation: G5Y
numeric_result: 3.56

variant_notation: S21R
numeric_result: 2.65

variant_notation: H3T
numeric_result: 3.81

variant_notation: C14N
numeric_result: 4.3

variant_notation: C14R
numeric_result: 4.32

variant_notation: H3Q
numeric_result: 4.33

variant_notation: E7D
numeric_result: 2.82

variant_notation: R17W
numeric_result: 3.97

variant_notation: S22H
numeric_result: 3.56

variant_notation: G15Q
numeric_result: 3.85

variant_notation: K10Q
numeric_result: 3.39

variant_notation: D23Y
numeric_result: 1.72

variant_notation: P8A
numeric_result: 3.64

variant_notation: I2F
numeric_result: 3.1

variant_notation: H9A
numeric_result: 3.42

variant_notation: K16V
numeric_result: 2.37

variant_notation: E13I
numeric_result: 3.26

variant_notation: K16T
numeric_result: 3.68

variant_notation: S21D
numeric_result: 4.25

variant_notation: H3K
numeric_result: 2.7

variant_notation: E7C
numeric_result: 4.79

variant_notation: R20M
numeric_result: 3.41

variant_notation: S4V
numeric_result: 2.44

variant_notation: L24S
numeric_result: 3.88

variant_notation: H9L
numeric_result: 2.19

variant_notation: P8L
numeric_result: 3.41

variant_notation: H3Y
numeric_result: 3.32

variant_notation: G5D
numeric_result: 3.74

variant_notation: C14W
numeric_result: 4.39

variant_notation: R1W
numeric_result: 2.28

variant_notation: F18N
numeric_result: 4.68

variant_notation: P12L
numeric_result: 3.23

variant_notation: E13R
numeric_result: 2.84

variant_notation: L19I
numeric_result: 2.76

variant_notation: E6H
numeric_result: 2.79

variant_notation: P8W
numeric_result: 3.72

variant_notation: L19E
numeric_result: 4.32

variant_notation: K10S
numeric_result: 3
